# Experiment description: in vitro
# Test settings: human
Value type: CC50 at 72 h

1) COc1cc(C2CC(=O)c3c(cc(O)c(CC=C(C)C)c3O)O2)ccc1O (stereo not shown) :: > 100 µM
2) CC(C)=CCc1c(O)c(CC=C(C)C)c2c(c1O)C(=O)CC(c1cc(O)cc(O)c1)O2 (stereo not shown) :: 80.6 µM
3) O=c1cc(-c2ccc(O)c(O)c2O)oc2cc(O)cc(O)c12 [Compound 14, 2',3',4',5,7-pentahydroxyflavone] :: > 100 µM
4) CC(C)=CCC/C(C)=C/Cc1c(O)cc2c(c1O)C(=O)[C@H](O)[C@@H](c1ccc(O)cc1)O2 :: 63.2 µM
5) CC(C)=CCC/C(C)=C/Cc1c(O)cc(O)c2c1OC(c1ccccc1)CC2=O (racemic) [Compound 24, (R,S)-8-geranyl-5,7-dihydroxyflavanone] :: > 100 µM

Record CC50 at 72 h per entry; entries follow.
1. COc1c(CC=C(C)C)cc([C@@H]2CC(=O)c3c(O)cc(O)cc3O2)cc1CC=C(C)C
2. CC(C)=CCc1c(O)c(CC=C(C)C)c2occ(-c3ccc(O)cc3)c(=O)c2c1O

Output:
> 100 µM
48.8 µM

---

Give sample concentrations provoking induction of erythrocyte lysis in viral HA assay for every item shown.
# Tested on: human erythrocytes
# Test settings: human

Here are 6 compounds together with their reported answers.
1) CC(C)=CCC12Oc3cc(O)c(C4=CC5(C)CC(C4)c4ccc(O)cc4O5)c(O)c3C(=O)C1(O)Oc1cc(O)ccc12 (stereo not shown) [Compound 1, sanggenon B] :: 100 or no
2) CC(C)=CCc1cc(C2CC(=O)c3c(O)cc(O)cc3O2)ccc1O (stereo not shown) [Compound 20, 4',5,7-trihydroxy-3'-prenylflavanone] :: 100 or no
3) CC(C)=CCC/C(C)=C/Cc1c(O)cc2c(c1O)C(=O)CC(c1ccc(O)c(O)c1)O2 (stereo not shown) [Compound 25] :: 100 or no
4) CC(C)=CCc1c(O)c(CC=C(C)C)c2occ(-c3ccc(O)c(O)c3)c(=O)c2c1O [Compound 31, 6,8-diprenylorobol] :: 31.6 to 100 µM
5) CC(C)=CCC/C(C)=C/Cc1c(O)ccc([C@@H]2CC(=O)c3c(O)cc(O)cc3O2)c1O [Compound 5, sanggenol A] :: 100 or no
6) CC(C)=CCc1c(O)c(CC=C(C)C)c2c(c1O)C(=O)C(c1ccc(O)cc1O)CO2 (stereo not shown) [Compound 32, orientanol E] :: 31.6 to 100 µM

With those in mind, consider the next compound.
Recorded result, CC1=C[C@H](c2c(O)ccc([C@@H]3CC(=O)c4c(O)cc(O)cc4O3)c2O)[C@@H](C(=O)c2ccc(O)cc2O)[C@H](c2ccc(O)cc2O)C1 [Compound 6, kuwanon L] , sample concentrations provoking induction of erythrocyte lysis in viral HA assay: 100 µM

---

Give CC50 at 72 h for every item shown.
# Experiment description: in vitro
# Test settings: dog

Here are 5 compounds together with their reported answers.
1. O=C1CC(c2ccc(O)cc2O)Oc2cc(O)cc(O)c21 (stereo not shown) [Compound 12, 2',4',5,7-tetrahydroxyflavanone] :: > 100 µM
2. COc1c(O)cc2c(c1O)C(=O)CC(c1ccccc1)O2 (stereo not shown) [Compound 8] :: > 100 µM
3. CC(C)=CCc1c(O)c(CC=C(C)C)c2c(c1O)C(=O)C(c1ccc(O)cc1O)CO2 (stereo not shown) [Compound 32, orientanol E] :: 21.4 µM
4. O=c1c(O)c(-c2ccc(O)cc2O)oc2cc(O)cc(O)c12 [Compound 16, morin] :: > 100 µM
5. CC(C)=CCc1c(O)c(CC=C(C)C)c2c(c1O)C(=O)C[C@@H](c1ccc(O)cc1)O2 [Compound 28, 6,8-diprenylnaringenin] :: 15.8 µM

Record CC50 at 72 h per entry; entries follow.
1. CC(C)=CCc1cc(C2CC(=O)c3c(O)cc(O)cc3O2)ccc1O (stereo not shown) [Compound 20, 4',5,7-trihydroxy-3'-prenylflavanone]
2. O=c1cc(-c2ccc(O)c(O)c2O)oc2cc(O)cc(O)c12 [Compound 14, 2',3',4',5,7-pentahydroxyflavone]

Output:
1: 67.9 µM; 2: > 100 µM

---

# Subject of test: influenza virus A/WSN/33 NA (Influenza A virus)
# Sequence (P03470 whole entry, looked up): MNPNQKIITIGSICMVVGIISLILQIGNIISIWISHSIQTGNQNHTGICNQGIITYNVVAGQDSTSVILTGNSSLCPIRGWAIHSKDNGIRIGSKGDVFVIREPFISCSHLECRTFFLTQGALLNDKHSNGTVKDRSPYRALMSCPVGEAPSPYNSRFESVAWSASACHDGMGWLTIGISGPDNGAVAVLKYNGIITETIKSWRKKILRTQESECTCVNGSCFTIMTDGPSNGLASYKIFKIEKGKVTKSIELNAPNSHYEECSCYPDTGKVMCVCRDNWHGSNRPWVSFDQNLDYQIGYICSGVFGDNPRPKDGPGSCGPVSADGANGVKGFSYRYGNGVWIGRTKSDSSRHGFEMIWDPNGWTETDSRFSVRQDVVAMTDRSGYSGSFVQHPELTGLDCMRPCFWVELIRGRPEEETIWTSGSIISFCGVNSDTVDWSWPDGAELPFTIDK
# Experiment description: biochemical
Value type: pIC50
Answers are plain numbers, as −log10 of the molar value.

Here are 2 molecules together with their reported answers.
1) COc1c(CC=C(C)C)cc([C@@H]2CC(=O)c3c(O)cc(O)cc3O2)cc1CC=C(C)C [Compound 27, abyssinone-V 4'-methyl ether] :: 4.48
2) CC(C)=CCc1c(O)c(CC=C(C)C)c2c(c1O)C(=O)CC(c1cc(O)cc(O)c1)O2 (stereo not drawn) [Compound 29] :: 4.27

Record pIC50 per entry; entries follow.
1. CC(C)=CCc1c(O)c(CC=C(C)C)c2c(c1O)C(=O)C(c1ccc(O)cc1O)CO2 (stereo not drawn) [Compound 32, orientanol E]
2. COc1cc(C2CC(=O)c3c(O)cc(O)cc3O2)cc(CC=C(C)C)c1O (stereo not drawn) [Compound 21]
3. CC(C)=CC[C@]12Oc3cc(O)c([C@H]4C=C(C)C[C@H](c5ccc(O)cc5O)[C@H]4C(=O)c4ccc(O)cc4O)c(O)c3C(=O)[C@@]1(O)Oc1cc(O)ccc12 [Compound 2, sanggenon C]
4. O=c1c(O)c(-c2ccc(O)cc2O)oc2cc(O)cc(O)c12 [Compound 16, morin]
5. COc1cc([C@H]2Oc3cc([C@H]4Oc5cc(O)cc(O)c5C(=O)[C@@H]4O)ccc3O[C@@H]2CO)ccc1O (racemic) [Compound 17, (±)-silybin]

Output:
1: 4.57; 2: 4.34; 3: 5.04; 4: 4.21; 5: 5.04

---

# Tested on: IAV Jena/8178/2009 (8178/09)
# Experiment description: microbe, parasite or virus in culture
# Format: cell-based, Influenza A virus
# Test settings: Influenza A virus, MDCK, 48 h; read-out: IC50 of CPE IAV 8178/09
Give pIC50 for every item shown.
One number for each entry, as −log10 of the molar value.

Here are 3 compounds together with their reported answers.
1. CC(C)=CCc1cc(C2CC(=O)c3ccc(O)cc3O2)ccc1O (racemic) [Compound 18, (±)-abyssinone II] :: 4.59
2. CC(C)=CC[C@]12Oc3cc(O)c([C@H]4C=C(C)C[C@H](c5ccc(O)cc5O)[C@H]4C(=O)c4ccc(O)cc4O)c(O)c3C(=O)[C@@]1(O)Oc1cc(O)ccc12 [Compound 2, sanggenon C] :: 5.08
3. CC(C)=CCc1c(O)cc(O)c2c1O[C@@H](c1ccc(O)cc1)[C@H](O)C2=O (relative stereo) [Compound 23] :: 4.61

With those in mind, consider the next compound.
Recorded result, O=c1c(O)c(-c2ccc(O)cc2O)oc2cc(O)cc(O)c12 [Compound 16, morin] , pIC50: 4.15

---

# Subject of test: influenza virus A/WSN/33 NA (Influenza A virus)
# Experiment description: biochemical
Value type: IC50

1) CC(C)=CCc1cc(C2CC(=O)c3c(O)cc(O)cc3O2)ccc1O (centres unmarked) [Compound 20, 4',5,7-trihydroxy-3'-prenylflavanone] :: > 100 µM
2) O=C1CC(c2ccc(O)c(O)c2)Oc2cc(O)cc(O)c21 (racemic) [Compound 11, (±)-eriodictyol] :: > 100 µM
3) CC(C)=CCc1cc(C2CC(=O)c3ccc(O)cc3O2)ccc1O (racemic) [Compound 18, (±)-abyssinone II] :: > 100 µM
4) CC(C)=CCc1c(O)c(CC=C(C)C)c2[nH]c3c(O)cccc3c(=O)c2c1O :: > 100 µM
5) CC(C)=CCC/C(C)=C/Cc1c(O)cc2c(c1O)C(=O)[C@H](O)[C@@H](c1ccc(O)cc1)O2 :: 63.9 µM
6) CC(C)=CCc1c(O)cc(O)c2c1O[C@@H](c1ccc(O)cc1)[C@H](O)C2=O (relative stereo) :: 27 µM
7) CC(C)=CCc1c(O)c(CC=C(C)C)c2c(c1O)C(=O)C[C@@H](c1ccc(O)cc1)O2 :: > 100 µM

Recorded result, CC(C)=CCC/C(C)=C/Cc1c(O)cc2c(c1O)C(=O)CC(c1ccc(O)c(O)c1)O2 (centres unmarked) , IC50: 41.4 µM

The values you see were collected from paper PMC4891693.
